Source listed as the array DNA melting data of Ke et al..

Measured Tm, listed per entry for reference.
Assay: melting temperature; melt of duplexes
Conditions: sodium 0.0675 M; strand 1 µM
measurement.name: Tm

>>> measured_value("CGACGTGCCTTATGTGCTG+CAGCACATGATGCACGTCG ((((((((.(.((((((((+)))))))).).))))))))")
"50.1 °C"
>>> measured_value("CGACGTGCGTCATGTGCTG+CAGCACATCGAGCACGTCG ((((((((...((((((((+))))))))...))))))))")
"52.3 °C"
>>> measured_value("CGACGTGCTCAATGTGCTG+CAGCACATTTAGCACGTCG (((((((((.(((((((((+))))))))).)))))))))")
"54.7 °C"
>>> measured_value("CGACGTGCATTATGTGCTG+CAGCACATTGAGCACGTCG ((((((((...((((((((+))))))))...))))))))")
"49.5 °C"
>>> measured_value("CGACGTGCATTATGTGCTG+CAGCACATAGGGCACGTCG ((((((((..(((((((((+)))))))))..))))))))")
"52 °C"
>>> measured_value("CGACGTGCGCTATGTGCTG+CAGCACATCCTGCACGTCG ((((((((...((((((((+))))))))...))))))))")
"48.1 °C"
>>> measured_value("CGACGTGCGGCATGTGCTG+CAGCACATCCAGCACGTCG ((((((((.(.((((((((+)))))))).).))))))))")
"53.9 °C"
>>> measured_value("CGACGTGCTTGATGTGCTG+CAGCACATGGGGCACGTCG ((((((((...((((((((+))))))))...))))))))")
"50.7 °C"
>>> measured_value("CGACGTGCACCATGTGCTG+CAGCACATCATGCACGTCG (((((((((..((((((((+))))))))..)))))))))")
"45.6 °C"
>>> measured_value("CGACGTGCTGCATGTGCTG+CAGCACATCGCGCACGTCG ((((((((...((((((((+))))))))...))))))))")
"52.6 °C"
>>> measured_value("CGACGTGCCGGATGTGCTG+CAGCACATAAAGCACGTCG ((((((((...((((((((+))))))))...))))))))")
"50.2 °C"
>>> measured_value("CGACGTGCGCTATGTGCTG+CAGCACATAGCGCACGTCG (((((((((((((((((((+)))))))))))))))))))")
"66.4 °C"
>>> measured_value("CGACGTGCTCGATGTGCTG+CAGCACATGGAGCACGTCG ((((((((((.((((((((+)))))))).))))))))))")
"59.3 °C"
>>> measured_value("CGACGTGCCCGATGTGCTG+CAGCACATTATGCACGTCG ((((((((...((((((((+))))))))...))))))))")
"48.4 °C"
>>> measured_value("CGACGTGCGAAATGTGCTG+CAGCACATCAGGCACGTCG ((((((((...((((((((+))))))))...))))))))")
"49.7 °C"

====

Assay: melting temperature; melt of duplexes
Details: sodium 0.0675 M; strand 1 µM
measurement.name: Tm (°C)

>>> measured_value("CGACGTGCAAAATGTGCTG+CAGCACATAAAGCACGTCG ((((((((...((((((((+))))))))...))))))))")
50.8
>>> measured_value("CGACGTGCTCTATGTGCTG+CAGCACATAGTGCACGTCG ((((((((.((((((((((+)))))))))).))))))))")
54.1
>>> measured_value("CGACGTGCGAAATGTGCTG+CAGCACATGGGGCACGTCG ((((((((...((((((((+))))))))...))))))))")
52
>>> measured_value("CGACGTGCGTGATGTGCTG+CAGCACATTCTGCACGTCG ((((((((...((((((((+))))))))...))))))))")
51.8

====

Assay: melting temperature; melt of duplexes
Details: sodium 0.0675 M; strand 1 µM
For each record, check the reported Tm: if it is below 50 °C write true (1), else write false (0).

>>> class_name("CGACGTGCCCGATGTGCTG+CAGCACATCTAGCACGTCG ((((((((..(((((((((+)))))))))..))))))))")
"false (0)"
>>> class_name("CGACGTGCCTGATGTGCTG+CAGCACATGGAGCACGTCG ((((((((...((((((((+))))))))...))))))))")
"false (0)"
>>> class_name("CGACGTGCTTTATGTGCTG+CAGCACATCACGCACGTCG ((((((((.(.((((((((+)))))))).).))))))))")
"true (1)"
>>> class_name("CGACGTGCACGATGTGCTG+CAGCACATGGGGCACGTCG ((((((((.(.((((((((+)))))))).).))))))))")
"false (0)"
>>> class_name("CGACGTGCCGAATGTGCTG+CAGCACATAAGGCACGTCG (((((((((..((((((((+))))))))..)))))))))")
"false (0)"
>>> class_name("CGACGTGCGCGATGTGCTG+CAGCACATCCTGCACGTCG ((((((((..(((((((((+)))))))))..))))))))")
"false (0)"

====

Experiment: melting temperature; melt of duplexes
Conditions: sodium 0.0675 M; strand 1 µM
Measured Tm, listed per entry for reference.
measurement.name: Tm (°C)

>>> measured_value("CGACGTGCAACATGTGCTG+CAGCACATCGTGCACGTCG (((((((((..((((((((+))))))))..)))))))))")
47.9
>>> measured_value("CGACGTGCGAGATGTGCTG+CAGCACATCACGCACGTCG (((((((((.(((((((((+))))))))).)))))))))")
61.4
>>> measured_value("CGACGTGCAGTATGTGCTG+CAGCACATTCAGCACGTCG ((((((((.(.((((((((+)))))))).).))))))))")
51.1
>>> measured_value("CGACGTGCAGCATGTGCTG+CAGCACATACGGCACGTCG ((((((((.(.((((((((+)))))))).).))))))))")
49.3
>>> measured_value("CGACGTGCATCATGTGCTG+CAGCACATGGGGCACGTCG ((((((((..(((((((((+)))))))))..))))))))")
56.5
>>> measured_value("CGACGTGCCCCATGTGCTG+CAGCACATCACGCACGTCG ((((((((...((((((((+))))))))...))))))))")
45.7
>>> measured_value("CGACGTGCAGTATGTGCTG+CAGCACATCGTGCACGTCG (((((((((..((((((((+))))))))..)))))))))")
48.2

====

Test: melting temperature; melt of duplexes
Conditions: sodium 0.0675 M; strand 1 µM
Measured Tm, listed per entry for reference.
measurement.name: Tm

>>> measured_value("CGACGTGCCTGATGTGCTG+CAGCACATAGTGCACGTCG ((((((((...((((((((+))))))))...))))))))")
"46.5 °C"
>>> measured_value("CGACGTGCACGATGTGCTG+CAGCACATATCGCACGTCG ((((((((...((((((((+))))))))...))))))))")
"44.2 °C"
>>> measured_value("CGACGTGCGAGATGTGCTG+CAGCACATCCTGCACGTCG ((((((((..(((((((((+)))))))))..))))))))")
"55.6 °C"
>>> measured_value("CGACGTGCCGGATGTGCTG+CAGCACATTATGCACGTCG ((((((((...((((((((+))))))))...))))))))")
"49.7 °C"
>>> measured_value("CGACGTGCTATATGTGCTG+CAGCACATACGGCACGTCG ((((((((..(((((((((+)))))))))..))))))))")
"50.7 °C"
>>> measured_value("CGACGTGCGGAATGTGCTG+CAGCACATTCGGCACGTCG ((((((((.((((((((((+)))))))))).))))))))")
"59.9 °C"
>>> measured_value("CGACGTGCATCATGTGCTG+CAGCACATCCAGCACGTCG ((((((((...((((((((+))))))))...))))))))")
"46.6 °C"

====

Test: melting temperature; melt of duplexes
Conditions: sodium 0.0675 M; strand 1 µM
For each record, check the reported Tm: if it is below 50 °C write class 1, else write class 0.

>>> class_name("CGACGTGCGATATGTGCTG+CAGCACATCGTGCACGTCG ((((((((...((((((((+))))))))...))))))))")
"class 1"
>>> class_name("CGACGTGCTGGATGTGCTG+CAGCACATGCCGCACGTCG ((((((((.(.((((((((+)))))))).).))))))))")
"class 0"
>>> class_name("CGACGTGCTGTATGTGCTG+CAGCACATTCTGCACGTCG ((((((((.(.((((((((+)))))))).).))))))))")
"class 0"
>>> class_name("CGACGTGCGGTATGTGCTG+CAGCACATGATGCACGTCG ((((((((...((((((((+))))))))...))))))))")
"class 0"
